Reference source: patent US8569295B2

compounds and their reported IC50
Biological target: GST-Aurora A (Homo sapiens, UniProt O14965)
Construct: N-terminal GST fusion with full length Aurora A (1-403 amino acids); purchased Carna Biosciences 05-101
Sequence (O14965 whole entry, the tested form may be a part): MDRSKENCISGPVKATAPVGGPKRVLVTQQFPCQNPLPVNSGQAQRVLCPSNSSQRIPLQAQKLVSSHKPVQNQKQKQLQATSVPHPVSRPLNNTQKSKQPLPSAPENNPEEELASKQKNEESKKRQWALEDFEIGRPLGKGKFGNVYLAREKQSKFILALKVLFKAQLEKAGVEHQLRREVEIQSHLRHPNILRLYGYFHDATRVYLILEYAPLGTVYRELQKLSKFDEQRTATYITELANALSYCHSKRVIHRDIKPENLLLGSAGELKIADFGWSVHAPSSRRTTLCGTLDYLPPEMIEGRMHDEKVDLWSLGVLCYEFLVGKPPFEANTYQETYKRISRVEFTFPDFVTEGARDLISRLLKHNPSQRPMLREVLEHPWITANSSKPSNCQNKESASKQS
Assay: Aurora A kinase biochemical mobility shift assay (Caliper LC3000 / Desktop Profiler)
Conditions: AK A (Aurora kinase A) inhibition
Endpoint Label: IC50

> print(dat)
                                   compound          result
1  O=C(Nc1ccc(Nc2ccnc3c2C2OCCN2C(=O)N3)cc1)c1ccc(F)cc1C(F)(F)F (stereo not drawn) [Example 43]  100 to 1000 nM
2  COc1ccc(CN2Cc3c(Nc4ccc(NC(=O)Nc5ccc(F)c(F)c5)cc4)ccnc3NC2=O)cc1 [Example 120]  100 to 1000 nM
3  COc1ccc(CN2Cc3c(Nc4ccc(NC(=O)c5cccc(F)c5)cc4F)ccnc3NC2=O)cc1 [Example 113]  100 to 1000 nM

====

Target: GST-Aurora A (Homo sapiens, UniProt O14965)
Construct: N-terminal GST fusion with full length Aurora A (1-403 amino acids)
Assay: Aurora A kinase biochemical mobility shift assay (Caliper LC3000 / Desktop Profiler)
Settings: AK A (Aurora kinase A) inhibition
pIC50: −log10 of the molar value.
Endpoint Label: pIC50

> print(dat)
                                   molecule                               measured.on  endpoint.label        result
1  O=C1NCc2c(Nc3ccc(NC(=O)c4ccc(F)cc4C(F)(F)F)cc3F)ccnc2N1 [Example 116]  GST-Aurora A (Homo sapiens, UniProt O14965)           pIC50        > 8.00
2  O=C(Nc1ccc(Nc2ccnc3c2CN(c2ccc(CN4CCCC4)cc2)C(=O)N3)cc1)c1ccccc1 [Example 9]  GST-Aurora A (Homo sapiens, UniProt O14965)           pIC50  6.00 to 7.00
3  O=C1NCc2c(Nc3ccc(NC(=O)c4cccc(F)c4)cc3F)ccnc2N1 [Example 117]  GST-Aurora A (Homo sapiens, UniProt O14965)           pIC50  7.00 to 8.00
4  O=C(Nc1ccc(Nc2ccnc3c2CN(C2CC2)C(=O)N3)cc1)c1ccc(F)cc1C(F)(F)F [Example 15]  GST-Aurora A (Homo sapiens, UniProt O14965)           pIC50  7.00 to 8.00
